Target: human CTLA-4 (human) (UniProt P16410)
Sequence (P16410 36-223): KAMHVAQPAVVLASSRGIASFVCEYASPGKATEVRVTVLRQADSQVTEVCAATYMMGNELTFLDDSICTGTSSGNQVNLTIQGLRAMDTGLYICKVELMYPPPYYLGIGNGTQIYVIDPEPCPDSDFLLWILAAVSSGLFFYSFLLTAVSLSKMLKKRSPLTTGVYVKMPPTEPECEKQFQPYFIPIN
Assay: flow cytometry, transfected Expi293F cells
READOUT_LABEL: MFI
Number only, no unit.

What measured MFI goes with CD80 R29D/Y31L/Q33H/K36G/M38I/T41A/M43R/M47T/L70Q/E81V/K89N/A91T/F92P/K93V/R94L/I118V/T120S/I127T/T130A ECD-Fc (Fc fusion) VIHVTKEVKEVATLSCGHNVSVEELAQTDILWHKEGKIVLAMRSGDTNIWPEYKNRTIFDITNNLSIVIQALRPSDEGTYVCVVLKYENDTPVLEHLAEVTLSVKADFPTPSISDFEVPSSNIRRITCSASGGFPEPHLSWLENGEELNAINTTVSQDPETELYAVSSKLDFNMTTNHSFMCLIKYGHLRVNQTFNWNTTKQEHFPDN ? 2120
